# ADCC reporter bioassay, Top (MFI) values compiled below
- target: T1, human AMHRII (anti-Mullerian hormone receptor type 2) (human, UniProt Q16671 18-573)
- T1 sequence (looked up): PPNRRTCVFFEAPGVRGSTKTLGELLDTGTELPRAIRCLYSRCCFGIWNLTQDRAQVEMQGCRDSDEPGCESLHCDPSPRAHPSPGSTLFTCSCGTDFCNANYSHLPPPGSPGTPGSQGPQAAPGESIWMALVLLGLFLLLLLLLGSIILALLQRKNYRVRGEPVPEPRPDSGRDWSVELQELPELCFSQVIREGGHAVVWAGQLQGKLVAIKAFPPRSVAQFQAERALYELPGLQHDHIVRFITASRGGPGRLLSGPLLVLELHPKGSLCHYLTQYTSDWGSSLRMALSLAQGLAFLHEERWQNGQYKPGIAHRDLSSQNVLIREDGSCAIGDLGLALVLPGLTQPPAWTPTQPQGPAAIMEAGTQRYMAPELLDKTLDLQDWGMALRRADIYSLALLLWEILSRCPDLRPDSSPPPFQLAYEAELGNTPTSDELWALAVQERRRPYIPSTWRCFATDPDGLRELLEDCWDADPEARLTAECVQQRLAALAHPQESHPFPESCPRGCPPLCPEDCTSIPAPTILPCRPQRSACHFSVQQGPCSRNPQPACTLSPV
- test summary: cell-based or functional assay
quantity name: ADCC reporter bioassay, Top (MFI)

1) xi94C4C3 hIgG1 (antibody, V domains shown, Murine variable domains in human chimeric format, human IgG1; also called xi94C4C3 hlgG1; 94C4C3 (chimeric)) VH: DVQLQESGPGLVKPSQSLSLTCTVTGYSITSDYAWNWIRQFPGNKLEWMGYISYSGSISYNPSLKSRISITRDTSKNQFFLQLNSVTTEDTATYYCARSRYSWFDYWGQGTLVTVSA VL: DIVLTQSPTSLAVSLGQRATLSCSASESVDTYGNSFMHWYQQKPGQPPKLLIYRASSLESGIPVRFSGSGSRTDFTLTINPVEAADVATYYCQQSNEDPYTFGGGTKLEIK: 13100
2) xi114A2B5 hIgG1 (antibody, V domains shown, Murine variable domains in human chimeric format, human IgG1; also called 114A2B5 (chimeric)) VH: DVQLQESGPGLVKPSQSLSLTCTVTGYSITSDYAWNWIRQFPGNKLEWMGYISYSGSTSYNPSLKSRISITRDTSKNQFFLQLNSVTTEDTATYYCARSRYSWFDYWGQGTLVTVSA VL: DIVLTQSPASLAVSLGQRATLSCRASESVDTYGNSFMHWYQQKPGQSPKLLIYRASSLESGIPARFSGSGSRTDFTLTINPVEAADVATYYCQQSNEDPYTFGGGTKLEIK: 14100
3) xi35D4G3 hIgG1 (antibody, V domains shown, Murine variable domains in human chimeric format, human IgG1; also called 35D4G3 (chimeric)) VH: QVRLLQSGAALVKPGASAKMSCKASGYTFTDYWVSWVKQSHGKSLEWIGEIYPDNGITNFNEKFKGKATLTVDKSTRTAYMELSRLTSEDSAIYYCTRQRDYWGQGVMVTVSS VL: DVVLTQTPGSLSVTLGDQVSISCRSSQSLKYGDGYTYLEWYLQKPGQSPQLLFYGVSNRFSGVPDRFIGSGSGTDFTLKISRVEPEDLGVYYCFQATHDPNTFGTGTKLDLK: 14500
4) xi103C5G10F9 hIgG1 (antibody, V domains shown, Murine variable domains in human chimeric format, human IgG1; also called 103C5G10F9 (chimeric)) VH: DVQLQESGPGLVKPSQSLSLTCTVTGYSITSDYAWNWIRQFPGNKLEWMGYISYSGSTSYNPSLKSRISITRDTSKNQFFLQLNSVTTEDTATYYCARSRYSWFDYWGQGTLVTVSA VL: DIVLTQSPTSLAVSLGQRATLSCSASESVDTYGNSFMHWYQQKPGQSPKLLIYRASSLESGIPARFSGSGSRTDFTLTINPVEAADVATYYCQQSNEDPYTFGGGTKLEIK: 13900
